# System: AR-230
# Test: MTT cell viability assay, AR-230
# Assay type: cell-based, human
# Recorded conditions: 72 h, ± standard deviation
Endpoint: IC50
Answer as a quantity: numeral, then unit.

>>> print(df.to_string())
                           molecular_string  endpoint  observed_measurement
0  Cc1ccc(C(=O)N[c-]2cccc2)cc1Nc1nccc(-c2cccnc2)n1.[Fe+2].c1cc[cH-]c1      IC50                5.1 µM
1  Cc1ccc(NC(=O)[c-]2cccc2)cc1Nc1nccc(-c2cccnc2)n1.[Fe+2].c1cc[cH-]c1      IC50                5.1 µM
2  Cc1cn(-c2cc(NC(=O)c3ccc(C)c(Nc4nccc(-[c-]5cccc5)n4)c3)cc(C(F)(F)F)c2)cn1.[Fe+2].c1cc[cH-]c1      IC50                144 µM

Now take the following compound into account.
Challenge: May I ask what IC50 has been recorded for Cc1ccc(NC(=O)c2ccc(CN3CCN(C)CC3)cc2)cc1Nc1nccc(-[c-]2cccc2)n1.[Fe+2].c1cc[cH-]c1 ?
Response given: 5.9 µM
